# Protocol description: Plasma concentration in C57Bl6 mouse at 10 mg/kg, ip after 6 hrs
# Type: ADME, organism-based
# Parameters: dose 10 mg/kg, route intraperitoneal
Measured attribute: concentration at 6 h (nM)
Please state the figure in nM; there is no need to write the unit.

Quick note, concentration at 6 h for COc1cc(O)c(C(CC(=O)N2CC(C)CC(C)C2)c2ccc3c(c2)OCO3)c(OC)c1 (stereo unspecified) landed at 300

The measured values listed here are drawn from ChEMBL document CHEMBL2311492.
